The reported numbers originate from patent US9284368B2.

Assay: In vivo acute toxicity (OECD Up-and-Down Procedure)
Settings: mouse, female Balb/c mice, IP injection, observed for 14 days
Protocol: Female Balb/c mice, 8-12 weeks old, were obtained from the National Cancer Institute (Bethesda, Md.). A stock solution of 200 mg/ml of Compound 1 was prepared with a 1:1 ratio of DMSO and PEG. The working solution was diluted with PEG. Compound 1 (Sd-133) was administered at a constant volume (0.01 ml/1 g body weight) over the range of doses to be tested by varying the concentration of the dosing preparation according to the OECD Acute Toxicity-Up-and Down Procedure. […]
parameter measured: LD50 at 14 days
Param answer (str): number followed by unit.

Incoming: Report LD50 at 14 days, nothing else, for this compound: Oc1ccc(-c2cccnc2-c2ccccc2)cc1 [Compound 1]
Outgoing: 2000 mg/kg
